target: FPR2 (Homo sapiens (Human), UniProt P25090); assay: FLIPR Ca+2 response, HEK-Gα16 cells stably expressing the human FPR2 receptor (Table 4); type: cell-based; details: efficacy in parentheses
Sequence (P25090 whole entry): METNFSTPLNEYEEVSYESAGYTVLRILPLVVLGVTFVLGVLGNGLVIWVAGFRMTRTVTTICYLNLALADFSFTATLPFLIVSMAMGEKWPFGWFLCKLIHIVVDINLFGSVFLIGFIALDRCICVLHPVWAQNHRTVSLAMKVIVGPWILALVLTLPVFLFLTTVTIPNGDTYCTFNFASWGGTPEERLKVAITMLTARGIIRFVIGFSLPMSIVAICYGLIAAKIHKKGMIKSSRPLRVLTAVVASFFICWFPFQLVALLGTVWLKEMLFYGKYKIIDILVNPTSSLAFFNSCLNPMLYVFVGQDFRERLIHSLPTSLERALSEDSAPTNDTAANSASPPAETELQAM
measured-attribute: FPR2 (efficacy)

Some molecules with recorded FPR2 (efficacy):
{"molecule": "CC(C)C[C@H](NC(=O)Nc1ccc(C(F)(F)F)cc1)C(=O)NCC(=O)O", "FPR2 (efficacy)": "nM (1.0)"}
{"molecule": "CC(C)NC(=O)C1C(C(=O)Nc2ccc(Br)cc2)C2CCC1C21CC1 (centres unmarked)", "FPR2 (efficacy)": "nM (1.0)"}
{"molecule": "CCC1(CCc2ccccc2C(=O)O)NC(=O)N(NC(=O)Nc2ccc(Br)cc2)C1=O (centres unmarked)", "FPR2 (efficacy)": "nM (1.0)"}
{"molecule": "CS(=O)(=O)c1ccc(NC(=O)Nc2ccc3c(c2)C(=O)N(CCc2c[nH]cn2)C(c2ccc(F)cn2)C3)cc1 (centres unmarked)", "FPR2 (efficacy)": "nM (1.0)"}
{"molecule": "CCC[C@H](NC(=O)Nc1ccc(Br)cc1)C(=O)NCP(=O)(O)OCC", "FPR2 (efficacy)": "nM (0.96)"}

Now consider the entry below.
Notebook: CC1(CCc2cccc(F)c2)NC(=O)N(NC(=O)Nc2ccc(Br)cc2)C1=O (centres unmarked) , FPR2 (efficacy) read as nM (1.0)
